test_target: T1, recombinant human DLL4 (human, UniProt Q9NR61 25-522)
T1 construct: also called rhDLL4; hDLL4
T1 sequence (Q9NR61 25-522): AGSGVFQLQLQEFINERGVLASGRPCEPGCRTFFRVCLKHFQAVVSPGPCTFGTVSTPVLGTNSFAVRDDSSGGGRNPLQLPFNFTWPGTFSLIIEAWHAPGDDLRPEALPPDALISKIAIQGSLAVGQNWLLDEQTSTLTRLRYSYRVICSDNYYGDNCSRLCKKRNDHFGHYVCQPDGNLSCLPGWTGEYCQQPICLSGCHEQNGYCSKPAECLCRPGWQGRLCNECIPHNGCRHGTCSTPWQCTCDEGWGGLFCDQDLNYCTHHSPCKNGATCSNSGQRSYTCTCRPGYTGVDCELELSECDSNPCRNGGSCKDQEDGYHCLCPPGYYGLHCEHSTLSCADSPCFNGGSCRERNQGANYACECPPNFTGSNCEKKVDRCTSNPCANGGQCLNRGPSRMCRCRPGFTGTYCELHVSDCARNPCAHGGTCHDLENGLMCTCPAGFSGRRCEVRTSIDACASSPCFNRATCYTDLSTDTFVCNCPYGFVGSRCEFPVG
protocol_notes: hDLL4 ELISA screen, periplasmic extract
Provide the reported % inh of each item.

A selection of reference data follows.
- DLLBII28B06 (VHH) VHH: EVQLVESGGGLVQAGGSLRLSCAASGSTFSTYAMGWYRQDPGNQRELVAAISSDGSTHYADSVKGRFTISRDNAKNTVYLQMNSLKPEDTAVYYCYAPVKVAGLEYDYWGQGTQVTVSS: 23%
- DLLBII17B03 (VHH) VHH: EVQLVESGGGLVQPGGSLRLSCAASGFTFENYALGWFRQAPGKEREWVSCISSSDGTTYYADSVKGRFTISRDNVKNTVYLQMNRLKPEDTAIYYCALSLGSSWCAYDYWGQGTQVTVSS: 76%
- DLLBII6B11 (VHH, also called DLLBII06B1) VHH: EVQLVESEGGLVQAGGSLRLSCAASGSTFSSYAMGWYRQAPGKQRELVAVISNGGITNYPNSVKGRFTISRDNAKNTVYLQMNSLKPEDTAVYYCFYSGSYYYPTDVHEYDYWGQGTQVTVSS: 98%
- DLLBII08C11 (VHH, also called DLLBII8C11) VHH: EVQLVESGGGLVQAGGSLRLSCAASGFTFDDYAIGWFRQAPGKEREGVSCISSHDRTTYYADSVKGRFTISSDNAKNTVYLQMNSLKPEDTAVYYCAADPLVCGYNDPRLADYWGQGTQVTVSS: 57%

Hi there! I need % inh for each item below, if you can.
1. DLLBII08A09 (VHH, also called DLLBII8A09) VHH: EVQLVESGGGLVQPGGSLRLSCAASGFTLDYYNIGWFRQAPGKEREWVSCINSSDGSTYYADSVKGRFTISRDNAKNTVYLQMNSLKPEDTAVYYCAAPFAYYSNLCGVNGYDYWGQGTQVTVSS
2. DLLBII33C05 (VHH) VHH: EVQLVESGGGLVQAGGSLRLSCAASGFTLDNYVIGWFRQAPGKEREEVSCISSSGGSTDYLDSVKGRFTISRDNAKNTVYLQMNSLKPEDTAVYYCAADSLPCYYDKMVYDYWGQGTQVTVSS
3. DLLBII07B05 (VHH, also called DLLBII7B05) VHH: EVQLVESGGGLVQAGGSLRLSCAASGFALDYYAVGWFRQAPGKEREGVSCISSRGGSTFYADSVKGRFTTSRNNAKNTVYLQMNSLKPEDTAVYYCAAHPLQNCCGGSAYASPEAVYEYWGQGTQVTVSS

Data returned:
["96%", "86%", "84%"]
